Reported melting point values for a set of compounds
Please reply with the bare figure in °C and do not write the unit itself.

Check out these entries, answers already filled in.
Smiles String: CNC(=O)NS(=O)(=O)c1cc(CCNC(=O)c2cnc3ccccc3c2)ccc1OCCOCC(F)(F)F
Unit Of Measure: °C
Obs Value: 128
//
Smiles String: CNC(=S)NS(=O)(=O)c1cc(CCNC(=O)c2cnc3ccccc3c2)ccc1OCCOc1ccccc1
Unit Of Measure: °C
Obs Value: 110

Given the entry CNC(=S)NS(=O)(=O)c1cc(CCNC(=O)c2cnc3ccccc3c2)ccc1OCCc1ccccc1 , report its measured melting point.
124

---

biological target: hSUR1/hKir6.2 (Homo sapiens, UniProt Q09428+Q14654); experiment: Action on hSUR1/hKir6.2-transfected CHO cells (membrane potential, DIBAC4 fluorescence, FLIPR); assay type: cell-based; settings: 10 μM; CHO cells activated with diaxozide
Sequence (Q09428 whole entry): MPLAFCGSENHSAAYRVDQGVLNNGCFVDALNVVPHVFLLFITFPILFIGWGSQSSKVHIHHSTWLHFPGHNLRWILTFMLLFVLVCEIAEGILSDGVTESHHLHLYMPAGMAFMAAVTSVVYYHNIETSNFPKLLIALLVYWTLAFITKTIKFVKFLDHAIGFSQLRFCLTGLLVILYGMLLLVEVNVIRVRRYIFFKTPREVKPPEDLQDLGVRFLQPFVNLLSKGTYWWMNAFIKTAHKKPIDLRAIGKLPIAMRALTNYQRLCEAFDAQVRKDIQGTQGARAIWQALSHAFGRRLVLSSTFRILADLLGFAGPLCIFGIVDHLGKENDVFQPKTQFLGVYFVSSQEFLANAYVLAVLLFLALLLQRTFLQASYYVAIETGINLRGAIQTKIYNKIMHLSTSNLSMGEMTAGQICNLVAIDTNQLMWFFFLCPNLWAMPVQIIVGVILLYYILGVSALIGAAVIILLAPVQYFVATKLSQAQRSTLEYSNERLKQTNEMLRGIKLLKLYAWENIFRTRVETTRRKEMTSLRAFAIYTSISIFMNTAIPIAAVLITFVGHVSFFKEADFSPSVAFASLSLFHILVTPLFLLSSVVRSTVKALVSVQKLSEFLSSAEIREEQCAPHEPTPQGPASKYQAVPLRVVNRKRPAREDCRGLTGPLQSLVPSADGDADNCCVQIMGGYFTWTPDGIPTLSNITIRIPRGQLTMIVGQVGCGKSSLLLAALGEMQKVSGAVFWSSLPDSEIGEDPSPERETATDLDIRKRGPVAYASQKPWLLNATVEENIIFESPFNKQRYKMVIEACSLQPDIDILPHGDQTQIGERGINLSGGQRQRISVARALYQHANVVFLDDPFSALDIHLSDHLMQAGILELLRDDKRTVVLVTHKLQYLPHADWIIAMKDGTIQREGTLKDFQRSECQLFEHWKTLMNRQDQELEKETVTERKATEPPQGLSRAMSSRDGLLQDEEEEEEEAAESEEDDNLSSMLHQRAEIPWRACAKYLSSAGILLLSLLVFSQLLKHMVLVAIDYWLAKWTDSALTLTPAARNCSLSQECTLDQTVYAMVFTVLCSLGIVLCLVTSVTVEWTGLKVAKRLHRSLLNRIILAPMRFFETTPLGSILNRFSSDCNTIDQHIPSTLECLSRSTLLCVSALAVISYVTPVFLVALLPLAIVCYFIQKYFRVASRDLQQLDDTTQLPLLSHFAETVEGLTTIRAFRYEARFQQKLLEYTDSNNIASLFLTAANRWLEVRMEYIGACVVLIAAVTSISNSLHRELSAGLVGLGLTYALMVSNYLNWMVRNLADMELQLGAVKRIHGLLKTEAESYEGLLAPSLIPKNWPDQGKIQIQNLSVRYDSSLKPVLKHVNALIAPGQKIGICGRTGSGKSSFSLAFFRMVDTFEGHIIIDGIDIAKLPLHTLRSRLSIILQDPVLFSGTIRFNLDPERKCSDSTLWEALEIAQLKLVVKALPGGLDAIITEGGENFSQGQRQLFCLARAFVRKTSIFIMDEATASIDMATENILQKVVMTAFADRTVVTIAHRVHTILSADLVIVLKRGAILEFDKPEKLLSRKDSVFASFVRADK
Sequence (Q14654 whole entry): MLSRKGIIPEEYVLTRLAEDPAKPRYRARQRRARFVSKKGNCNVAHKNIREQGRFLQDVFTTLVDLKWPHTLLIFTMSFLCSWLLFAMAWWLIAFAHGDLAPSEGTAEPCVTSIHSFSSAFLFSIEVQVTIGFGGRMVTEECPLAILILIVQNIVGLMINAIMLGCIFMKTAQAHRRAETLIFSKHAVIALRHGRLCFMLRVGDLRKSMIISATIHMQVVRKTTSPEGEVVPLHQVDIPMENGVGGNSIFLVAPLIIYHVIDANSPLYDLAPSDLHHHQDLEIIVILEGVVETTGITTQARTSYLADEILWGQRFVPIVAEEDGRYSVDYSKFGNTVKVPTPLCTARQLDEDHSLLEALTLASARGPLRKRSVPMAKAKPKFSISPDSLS
Measure Name: Blockade hSUR1/hKir6.2 (%)
Please reply with the bare figure in % and do not write the unit itself.

Check out these entries, answers already filled in.
Smiles String: CNC(=O)NS(=O)(=O)c1cc(CCNC(=O)c2cnc3ccccc3c2)ccc1OCCOC
Blockade hSUR1/hKir6.2 [%]: 0

Smiles String: CNC(=S)NS(=O)(=O)c1cc(CCNC(=O)c2cnc3ccccc3c2)ccc1OCCOCC(F)(F)F
Blockade hSUR1/hKir6.2 [%]: 69.8

Smiles String: CNC(=S)NS(=O)(=O)c1cc(CCNC(=O)c2cnc3ccccc3c2)ccc1OCCOC
Blockade hSUR1/hKir6.2 [%]: 6.1

Smiles String: CNC(=S)NS(=O)(=O)c1cc(CCNC(=O)c2cnc3ccccc3c2)ccc1OCCOc1ccccc1
Blockade hSUR1/hKir6.2 [%]: 67.5

Attention now shifts to the item below.
Given the entry COc1ccc(CCNC(=O)C2=CCCCC2)cc1S(=O)(=O)NC(=S)NC(C)C , report its measured Blockade hSUR1/hKir6.2.
38.3

---

Reported melting point values for a set of compounds
Please reply with the bare figure in °C and do not write the unit itself.

Check out these entries, answers already filled in.
Smiles String: CNC(=S)NS(=O)(=O)c1cc(CCNC(=O)c2cnc3ccccc3c2)ccc1OC
Measure Name: melting point
Unit Of Measure: °C
Obs Value: 85
--
Smiles String: CNC(=S)NS(=O)(=O)c1cc(CCNC(=O)c2cnc3ccccc3c2)ccc1OCC(F)(F)F
Measure Name: melting point
Unit Of Measure: °C
Obs Value: 75
--
Smiles String: CNC(=O)NS(=O)(=O)c1cc(CCNC(=O)C2=CCCCC2)ccc1OC
Measure Name: melting point
Unit Of Measure: °C
Obs Value: 175

Given the entry CCCOc1ccc(CCNC(=O)c2cnc3ccccc3c2)cc1S(=O)(=O)NC(=O)NC , report its measured melting point.
120

---

Reported melting point values for a set of molecules

Smiles String: CNC(=S)NS(=O)(=O)c1cc(CCNC(=O)c2cnc3ccccc3c2)ccc1-c1ccco1
Measure Name: melting point
Obs Value: 155 to 156 °C
//
Smiles String: CNC(=S)NS(=O)(=O)c1cc(CCNC(=O)C=C(C)C)ccc1OC
Measure Name: melting point
Obs Value: 153 to 154 °C

Attention now shifts to the item below.
Given the entry CNC(=S)NS(=O)(=O)c1cc(CCNC(=O)C2=CCCCC2)ccc1OC , report its measured melting point.
179 to 182 °C
